# Tested on: CLK2
# Condition Summary: concentration: 1 μM, replicates: in singlicate; n = 1;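 further: KINOMEscan kinase panel screen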
Property Name: %Inh (%)
// units = %; emit number, no label

Past entries and their recorded results:
Recorded %Inh (compound "CCC(CC)(CC)n1cnc2c(N)ncnc21" ): 0

Recorded %Inh (compound COc1ccc(Nc2nccc(N3CCC(NC(=O)c4cccc(NC(C)=O)c4)C3)n2)cc1 (stereo not drawn) ): 0

Recorded %Inh (compound "c1ccc(-c2ccc3c(-c4ccnc(Nc5ccc6c(c5)OCCO6)n4)cnn3n2)cc1" ): 42

Recorded %Inh (compound "Cn1ccc2ncnc(Nc3ccc(Oc4cccc(Cl)c4)c(Cl)c3)c21" ): 0

Recorded %Inh (compound "Cl.Cn1ccc(-c2cccc(Nc3ccnc4cc(-c5nccs5)ccc34)c2)n1" ): 0

***
Recorded %Inh (compound "Cl.Cl.c1ccc(-c2cc3ccncc3cc2OC2CCNCC2)cc1" ): 32

Recorded %Inh (compound "OCCOCCn1ccc2ncnc(Nc3ccc(Oc4cccc(Cl)c4)c(Cl)c3)c21" ): 0

Recorded %Inh (compound "Cc1cc(N2CCC(NS(=O)(=O)c3ccc(F)cc3)CC2)nc(Nc2cccc(C#N)c2)n1.O=C(O)C(F)(F)F" ): 0

Recorded %Inh (compound "Cl.O=S(=O)(c1cccc(F)c1)c1ccc(Nc2ncnc3cc(Br)sc23)cc1Cl" ): 0

----------
# Test system: ANKK1
# Condition Summary: concentration: 1 μM, replicates: in singlicate; n = 1
Each entry below lists one item and its recorded %Inh value.
// units = %; emit number, no label

Recorded %Inh (compound "Oc1ccc2ncnc(Nc3ccc(OCc4ccccc4)cc3)c2c1" ): 0

Recorded %Inh (compound "O=C(Nc1n[nH]c2nc(-c3ccco3)c(Br)cc12)c1ccc(CN2CCCC2)cc1.O=C(O)[C@H](O)[C@@H](O)C(=O)O" ): 0

Recorded %Inh (compound "CSc1nn2c(=O)cc(N3CCOCC3)nc2n1Cc1cccc(Cl)c1Cl" ): 19

Recorded %Inh (compound "Cl.Fc1ccccc1COc1ccc(Nc2ncnc3ccc(-c4nnc(C(F)(F)F)o4)cc23)cc1Cl" ): 0

Recorded %Inh (compound "c1ccc(-c2ccc3c(-c4ccnc(Nc5ccc6c(c5)OCCO6)n4)cnn3n2)cc1" ): 4

Recorded %Inh (compound "Fc1cccc(COc2ccc(Nc3ncnc4sc(-c5ccc[nH]5)cc34)cc2Cl)c1" ): 12

Recorded %Inh (compound "CNc1nccc(-c2c(-c3ccc(F)cc3)ncn2CCCN2CCOCC2)n1" ): 39

Consider the additional compound presented here.
Recorded %Inh (compound "FC(F)(F)c1ccc(-c2cc(-c3c[nH]nc3-c3ccccn3)ccn2)cc1" ): 20

----------
# System: CSNK1D
# Condition Summary: concentration: 1 μM, replicates: in singlicate; n = 1
Each entry below lists one item and its recorded %Inh value.
// units = %; emit number, no label

Past entries and their recorded results:
Recorded %Inh (compound COc1ccc(NC(=O)Nc2ccc(C)c(-c3ccc(C(=O)Nc4ccncc4)cc3)c2)cc1 [GSK1398475] ): 15

Recorded %Inh (compound Clc1cccc(-c2nc(Nc3ccncc3)c3ccccc3n2)c1 [GW873004] ): 12

Recorded %Inh (compound CNc1nccc(-c2c(-c3ccc(F)cc3)ncn2CCCN2CCOCC2)n1 [SB-222516] ): 8

Recorded %Inh (compound O=C(Nc1ccccc1F)NC1CCN(c2ccnc(Nc3ccc(F)cc3)n2)C1 (stereo not drawn) [GSK1379722] ): 13

***
Recorded %Inh (compound COc1ccc(Nc2nccc(N3CCC(NC(=O)Nc4ccc5c(c4)OCO5)C3)n2)cc1 (stereo not drawn) [GSK1379745] ): 83

Recorded %Inh (compound C[C@H]1CC[C@@H](C(=O)Nc2ccccc2)CN1c1cc(-c2ccc3c(N)n[nH]c3c2)nc(N)n1 [GSK2283293] ): 0

----------
# Tested on: RPS6KA5(Kin.Dom.2-C-terminal)
# Condition Summary: concentration: 1 μM, replicates: in singlicate; n = 1
Property Name: %Inh (%)
// units = %; emit number, no label

Past entries and their recorded results:
Recorded %Inh (molecule "CCC(CC)(CC)n1cnc2c(N)ncnc21" ): 4

Recorded %Inh (molecule CC(C)(C)OC(=O)NC1CCCN(c2cc(-c3ccc4c(N)n[nH]c4c3)nc(N)n2)C1 (centres unmarked) ): 0

***
Recorded %Inh (molecule "Cl.Fc1ccccc1COc1ccc(Nc2ncnc3ccc(-c4nnc(C(F)(F)F)o4)cc23)cc1Cl" ): 0

Recorded %Inh (molecule "Nc1nc(-c2cccnc2)c(-c2ccnc3ccccc23)s1" ): 0

Recorded %Inh (molecule "Cc1cc(N2CCC(NS(=O)(=O)c3ccc(F)cc3)CC2)nc(Nc2cccc(C#N)c2)n1.O=C(O)C(F)(F)F" ): 0

Recorded %Inh (molecule "Cl.Cn1ccc(-c2cccc(Nc3ccnc4cc(-c5nccs5)ccc34)c2)n1" ): 39

Recorded %Inh (molecule "CC(C)N1CCC(n2cnc(-c3ccc(F)cc3)c2-c2ccnc(N)n2)CC1" ): 0

Recorded %Inh (molecule "Cn1cc(-c2ccc3c(c2)CCN3C(=O)Cc2cccc(C(F)(F)F)c2)c2c(N)ncnc21" ): 0

Recorded %Inh (molecule "Cc1ccc(O)cc1Nc1cc(C(F)(F)F)nc2ccc(-c3ccncc3)cc12" ): 9

Recorded %Inh (molecule "Cl.c1ccc(Cn2ncc3cc(Nc4ncnc5ccccc45)ccc32)cc1" ): 5

----------
# System: RSK2(Kin.Dom.1-N-terminal)
# Construct: gene RPS6KA3
# Condition Summary: concentration: 1 μM, replicates: in singlicate; n = 1
Property Name: %Inh (%)
// units = %; emit number, no label

Past entries and their recorded results:
# lookup: "Nc1nc(-c2ccccn2)c(-c2ccnc3ccccc23)s1" on RSK2(Kin.Dom.1-N-terminal), %Inh = 0

# lookup: "CN1CCC(n2cnc(-c3ccc(F)cc3)c2-c2ccnc(NC3CCNCC3)n2)CC1" on RSK2(Kin.Dom.1-N-terminal), %Inh = 9

# lookup: "Cn1ccc2ncnc(Oc3ccc(NC(=O)Nc4cccnc4)c(Cl)c3)c21" on RSK2(Kin.Dom.1-N-terminal), %Inh = 1

# lookup: "c1ccc(-c2ccc3c(-c4ccnc(Nc5ccc6c(c5)OCCO6)n4)cnn3n2)cc1" on RSK2(Kin.Dom.1-N-terminal), %Inh = 0

# lookup: "O=C(Nc1ccccc1)Nc1ccc(Oc2ccc3nccn3n2)cc1" on RSK2(Kin.Dom.1-N-terminal), %Inh = 0

# lookup: "Cl.Fc1ccccc1COc1ccc(Nc2ncnc3ccc(-c4nnc(C(F)(F)F)o4)cc23)cc1Cl" on RSK2(Kin.Dom.1-N-terminal), %Inh = 0

# lookup: CC(C)(C)OC(=O)NC1CCCN(c2cc(-c3ccc4c(N)n[nH]c4c3)nc(N)n2)C1 (stereo not drawn) on RSK2(Kin.Dom.1-N-terminal), %Inh = 27

# lookup: "Cl.Cl.c1ccc(-c2cc3ccncc3cc2OC2CCNCC2)cc1" on RSK2(Kin.Dom.1-N-terminal), %Inh = 9

# lookup: "COc1ccc(-c2nc3n(c2-c2ccncc2)CCC3)cc1" on RSK2(Kin.Dom.1-N-terminal), %Inh = 0

# lookup: "CC(C)(C)c1ccc(-n2cnc3c(N)ncnc32)cc1" on RSK2(Kin.Dom.1-N-terminal), %Inh = 0

***
# lookup: "CC(C)N1CCC(n2cnc(-c3ccc(F)cc3)c2-c2ccnc(N)n2)CC1" on RSK2(Kin.Dom.1-N-terminal), %Inh = 3

# lookup: "C[C@H]1CC[C@@H](C(=O)Nc2ccccc2)CN1c1cc(-c2ccc3c(N)n[nH]c3c2)nc(N)n1" on RSK2(Kin.Dom.1-N-terminal), %Inh = 0

# lookup: "CCc1nc(-c2cccc(C)c2)c(-c2ccnc(NC(=O)c3ccccc3)c2)s1" on RSK2(Kin.Dom.1-N-terminal), %Inh = 0

----------
# Tested on: TNK2
# Condition Summary: concentration: 1 μM, replicates: in singlicate; n = 1
Property Name: %Inh (%)
// units = %; emit number, no label

Recorded %Inh (compound CC(C)N1CCC(n2cnc(-c3ccc(F)cc3)c2-c2ccnc(N)n2)CC1 [SB-223132] ): 0

Recorded %Inh (compound "C[C@@H]1CCN(C(=O)CO)C[C@@H]1N(C)c1ncnc2[nH]ccc12" ): 0

Recorded %Inh (compound Fc1cccc(COc2ccc(Nc3ncnc4sc(-c5ccc[nH]5)cc34)cc2Cl)c1 [GW707818] ): 13

Recorded %Inh (compound "O=C(Nc1ccccc1)Nc1ccc(Oc2ccc3nccn3n2)cc1" ): 10

Recorded %Inh (compound Cl.Cl.c1ccc(-c2cc3ccncc3cc2OC2CCNCC2)cc1 [GSK1122999] ): 27

Recorded %Inh (compound O=c1cc(N2CCOCC2)nc2n(Cc3cccc(Cl)c3)ccn12 [GSK2296823] ): 28

***
Recorded %Inh (compound "CN1c2ccc(-c3ccc(C(=O)NCCO)cc3)cc2-c2[nH]ncc2S1(=O)=O" ): 10

Recorded %Inh (compound NC(=O)c1sc(-n2cnc3ccccc32)cc1OCc1ccccc1F [GSK1024306] ): 9

Recorded %Inh (compound COc1cc2ncnc(Nc3ccc(OCc4ccccc4Br)c(Cl)c3)c2cc1OC.Cl [GI261590] ): 24
